System: K4 kissing-loop RNA reporter;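 note: bound reporter read as fluorescence of individual clusters on recovered sequencing chips by microscopy, with normalized cluster intensities fitted with a binding model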
Assay: apparent KD of K4 kissing-loop reporter; higher = weaker reporter binding
Settings: Eterna round: R107; input ligand: theophylline 20 uM
Range-based classes on measured apparent KD of K4 kissing-loop reporter: low group (below 100 nM), middle group (100 nM to below 300 nM), high group (300 nM or more)

Field: class (apparent KD of K4 kissing-loop reporter) — entry: UGAUUUAACUGAAGGAGCGGCAAUUGAUAAGUAAAUAUAGUGAUGUUAUAUAAGAUAGAGAGCCAGGUAGGUCGCAGAGGGAGGA [ExArgB.J] middle group

Field: class (apparent KD of K4 kissing-loop reporter) — entry: UAAGCUCUGACGGCCGCCACUGCACGUGAAUCAGUGGUGGCUAACAUGAGUGAUGUUCAUGUAAGCAGGACCGGGUCAGAGCUAA [KL-XTryp-B14 #analogue] low group

Field: class (apparent KD of K4 kissing-loop reporter) — entry: ACGUGUCACUGAAGGAGCGUCUACCGAAUACGAGUGAUGUUGGUAUACCACUUAUAUAGUGGACAGGUAGGUCGCAGUGAUACGU [Arg B Ex t4] high group

Field: class (apparent KD of K4 kissing-loop reporter) — entry: AUUUUUUUGUCAGGAUAUUAGUAUGCGUUUGGUUUGUUAGUGAUGUUGAUAUUUUGUUUAUGUAUUUAAGAAGGGAUUUAGCGGU [yyitemullin] high group

Field: class (apparent KD of K4 kissing-loop reporter) — entry: GCUACUGCCUUAGGAUAUAGUUGAGUGAUGUUCAAGCAUAUGCAUGGGAAAACCAUGCAUAUGUCCCUAGAAGGGAGGCAGUAGC high group

Field: class (apparent KD of K4 kissing-loop reporter) — entry: AGUGGACGUGUCCGGAGUGAUGUUCCGGAUACCAGACACGAAAGUGUCCCUUGGCAGCCGGAGUGAUGUUCCGGCGUUCACUAAA [Omei KL Theo A Exc B v1] middle group

Field: class (apparent KD of K4 kissing-loop reporter) — entry: UAAUAAUAAUGAUAAUAAUAAAGUGGUGGACGAGGACCGGUACGGCCGCCACUCGAAAAUGCAGUGAUGUUGUAAUACAAAUAAU [Exclusion - Tryptophan A (Freestyle 1)] middle group

Field: class (apparent KD of K4 kissing-loop reporter) — entry: AACUGUCAAGGACAACAUUACUGAGGUGAUACCAGCAUCGAAAGAUGCCCUUGGCAGCACUAACUUGCAGUGAUGUUGCAAGUAA [BrourdMod 2 - Jieux - Exclusion - Theophylline A] middle group

Field: class (apparent KD of K4 kissing-loop reporter) — entry: UUCGAAAGUCGAAGGAGCGCUGGCGGUCAUAGACUAUAUCUGUAGUGAUGUUACAGAUUCCAGCAGGUAGGUCGCGACAGAGACA [Arg B SS t18b] low group

Field: class (apparent KD of K4 kissing-loop reporter) — entry: UCCUAGGCUCGAAAGAGCCUAGGUAAGACUCAGGAUAUCUGGAAACAGAGAAGGGAGCUACUAGUGAUGUUAGGAAUUCCCAUUU low group

Field: class (apparent KD of K4 kissing-loop reporter) — entry: UGUCAUUGGUCGGCCGCCACUAUAAUAAAAGAGUGAUGUUCUAAAAGACGGACAAAAGUCUGUCAUAGGACCGGGACCGAUGACU [TrypBS 25 #SwitchBubble #StaticStem] middle group

Field: class (apparent KD of K4 kissing-loop reporter) — entry: GCCGUACGCAUGGAUACCAGACAACCAUUCUAAAUUUUGUGUCCGGUAGUGAUGUUACCUGUCCCUUGGCAGCCAUGCGUACGGC high group

These data points were gathered from the supplement of paper PMC9170038.
